Data credit: BigSolDB 2.1

Settings: in water, 318.15 K
experimental_endpoint: solubility (mole fraction)
Answer with the value's number alone.

Q: Return reported solubility (mole fraction); argument: `O=C1Nc2ccccc2C1=O`
A: 0.000113

====

Settings: in ethyl acetate, 338.15 K
experimental_endpoint: solubility (mole fraction)
// print number alone

Q: // returns reported solubility (mole fraction) for input `O=C1Nc2ccccc2C1=O`
A: 0.013

====

Conditions: in PEG-400, 318.15 K
experimental_endpoint: solubility (mole fraction)

Q: Param item = `O=C1Nc2ccccc2C1=O` ; retrieve measured solubility (mole fraction).
A: 0.121

====

Conditions: in isopropanol, 308.15 K
experimental_endpoint: solubility (mole fraction)
Lab note: record the figure alone, no unit after it.

Q: Returns the measured solubility (mole fraction) for the input molecule. Input: `O=C1Nc2ccccc2C1=O`
A: 0.00545

====

Conditions: in ethylene glycol, 298.15 K
experimental_endpoint: solubility (mole fraction)
The answer should be written as a number, with no unit following it.

Q: So what does the record say about solubility (mole fraction) for `O=C1Nc2ccccc2C1=O` ?
A: 0.00754

====

Conditions: in ethanol, 328.15 K
experimental_endpoint: solubility (mole fraction)
Answer with the value's number alone.

Q: I am curious: what solubility (mole fraction) value has been reported for `O=C1Nc2ccccc2C1=O` ?
A: 0.00755

====

Details: in sec-butanol, 318.15 K
experimental_endpoint: solubility (mole fraction)
// no unit string in output, number only

Q: Look at this molecule and give its reported solubility (mole fraction). `O=C1Nc2ccccc2C1=O`
A: 0.0071

====

Conditions: in ethylene glycol, 318.15 K
experimental_endpoint: solubility (mole fraction)
Just the number.

Q: Entry `O=C1Nc2ccccc2C1=O` has what solubility (mole fraction)?
A: 0.011

====

Details: in sec-butanol, 328.15 K
experimental_endpoint: solubility (mole fraction)
A bare number is all that is needed in reply.

Q: Dear colleague, I am looking for the recorded solubility (mole fraction) of the following compound: `O=C1Nc2ccccc2C1=O`
A: 0.00814

====

Settings: in ethanol, 308.15 K
experimental_endpoint: solubility (mole fraction)
Could you keep your reply to the number by itself?

Q: Data request, read-out solubility (mole fraction), for `O=C1Nc2ccccc2C1=O`
A: 0.00506

====

Details: in sec-butanol, 308.15 K
experimental_endpoint: solubility (mole fraction)
When you answer, write just the number.

Q: // query solubility (mole fraction) value for entry `O=C1Nc2ccccc2C1=O`
A: 0.00596

====

Details: in transcutol, 298.15 K
experimental_endpoint: solubility (mole fraction)

Q: # solubility (mole fraction) lookup, item `O=C1Nc2ccccc2C1=O`
A: 0.523

====

Conditions: in water, 298.15 K
experimental_endpoint: solubility (mole fraction)
// return just the number, without any unit appended

Q: State the recorded solubility (mole fraction) for this entry: `O=C1Nc2ccccc2C1=O`
A: 5.14e-05

====

Settings: in sec-butanol, 298.15 K
experimental_endpoint: solubility (mole fraction)

Q: Data request, read-out solubility (mole fraction), for `O=C1Nc2ccccc2C1=O`
A: 0.00516

====

Settings: in isopropanol, 298.15 K
experimental_endpoint: solubility (mole fraction)
No unit in the answer, only the number.

Q: // returns reported solubility (mole fraction) for input `O=C1Nc2ccccc2C1=O`
A: 0.00419

====

Details: in isopropanol, 318.15 K
experimental_endpoint: solubility (mole fraction)
Form rule: numeric answer, no unit written next to it.

Q: Returns the measured solubility (mole fraction) for the input compound. Input: `O=C1Nc2ccccc2C1=O`
A: 0.00694
